Molecular target: recombinant hMAO-A (Homo sapiens)
Construct: purchased Sigma-Aldrich
Sequence (P21397 whole entry): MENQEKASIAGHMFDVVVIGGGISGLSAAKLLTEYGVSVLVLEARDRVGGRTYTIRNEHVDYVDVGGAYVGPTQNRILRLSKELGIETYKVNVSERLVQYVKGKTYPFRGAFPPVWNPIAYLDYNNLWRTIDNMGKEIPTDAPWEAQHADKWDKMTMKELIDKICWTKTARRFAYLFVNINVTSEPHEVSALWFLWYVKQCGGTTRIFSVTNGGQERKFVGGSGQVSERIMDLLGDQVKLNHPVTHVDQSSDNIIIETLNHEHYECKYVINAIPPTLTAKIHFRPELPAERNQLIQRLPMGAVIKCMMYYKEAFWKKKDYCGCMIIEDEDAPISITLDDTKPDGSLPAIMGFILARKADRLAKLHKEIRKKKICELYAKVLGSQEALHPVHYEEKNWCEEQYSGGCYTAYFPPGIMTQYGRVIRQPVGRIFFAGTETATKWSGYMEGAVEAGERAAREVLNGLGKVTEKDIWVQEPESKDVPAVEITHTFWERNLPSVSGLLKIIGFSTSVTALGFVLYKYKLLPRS
Assay: MAO-A inhibition assay (kynuramine substrate)
Type: biochemical
Details: compound at 1.0 µM; mean ± standard error of duplicate experiments; read-out: Residual Activity (%) MAO-A (1.0 µM)
Procedure: Recombinant hMAO-A and hMAO-B activities were assayed while using kynuramine (0.06 mM) and benzylamine (0.3 mM) as substrates, respectively, as described previously. […] AChE activity was measured using Type VI-S from Electrophorus electricus in the presence of 0.5 mM 5,5’-dithiobis(2-nitrobenzoic acid) and 0.5 mM acetylthiocholine iodide, as described previously. […] AChE inhibitory activities were also determined, except at a concentration of 10 µM. […]
property: remaining activity at 1 µM (%)
Note: unit % is implicit; provide only the numeric part.

Look over these answered cases.
compound="COc1cc(/C=C/C(=O)c2ccc(ON=C(c3ccccc3)c3ccccc3)cc2)cc(OC)c1OC [COE-15]" property="remaining activity at 1 µM" quantitative_readout=95
compound="COC(=O)c1ccc(O/N=C(/C=C/c2ccc(OC)cc2)c2ccc(OC)cc2)cc1 [COE-18]" property="remaining activity at 1 µM" quantitative_readout=88.1
compound="COc1ccc(C(=O)/C=C/c2ccc(ON=C(c3ccccc3)c3ccccc3)cc2)cc1 [COE-3]" property="remaining activity at 1 µM" quantitative_readout=87.3
compound="COc1cccc(C(=O)/C=C/c2ccc(O/N=C(\\C)c3cccc4ccccc34)cc2)c1 [COE-8]" property="remaining activity at 1 µM" quantitative_readout=68.6
compound="COc1ccc(C(/C=C/c2ccccc2)=N\\Oc2ccc(C(C)=O)cc2)cc1 [COE-16]" property="remaining activity at 1 µM" quantitative_readout=93.4

Print recombinant hMAO-A (Homo sapiens) remaining activity at 1 µM for COc1ccc(C(=O)/C=C/c2ccc(O/N=C(\C)c3ccc(OC)cc3)cc2)cc1 [COE-2] .
69.9

Print recombinant hMAO-A (Homo sapiens) remaining activity at 1 µM for Cc1ccc(/C=C/C(=O)c2ccc(O/N=C3\CCc4ccccc43)cc2)cc1 [COE-12] .
95.7

Print recombinant hMAO-A (Homo sapiens) remaining activity at 1 µM for COc1ccc(/C=C/C(=O)c2ccc(O/N=C(\C)c3ccc(F)cc3)cc2)cc1 [COE-11] .
86

Print recombinant hMAO-A (Homo sapiens) remaining activity at 1 µM for COc1ccc(C(/C=C/c2ccccc2)=N\Oc2ccc(C(=O)/C=C/c3cc(OC)c(OC)c(OC)c3)cc2)cc1 [COE-24] .
88.9

Print recombinant hMAO-A (Homo sapiens) remaining activity at 1 µM for COc1ccc(/C=C/C(=N/Oc2ccc(/C=C/C(=O)c3ccc(OC)cc3)cc2)c2ccc(OC)cc2)cc1 [COE-20] .
89.7

====

biological target: AChE (Type VI-S from Electrophorus electricus) (Electrophorus electricus); construct: purchased Sigma-Aldrich Type VI-S; experiment: AChE inhibition assay (DTNB / acetylthiocholine iodide); assay type: biochemical; settings: compound at 10 µM; mean ± standard error of duplicate experiments; read-out: Residual Activity (%) AChE (10 µM)
Sequence (O42275 24-633): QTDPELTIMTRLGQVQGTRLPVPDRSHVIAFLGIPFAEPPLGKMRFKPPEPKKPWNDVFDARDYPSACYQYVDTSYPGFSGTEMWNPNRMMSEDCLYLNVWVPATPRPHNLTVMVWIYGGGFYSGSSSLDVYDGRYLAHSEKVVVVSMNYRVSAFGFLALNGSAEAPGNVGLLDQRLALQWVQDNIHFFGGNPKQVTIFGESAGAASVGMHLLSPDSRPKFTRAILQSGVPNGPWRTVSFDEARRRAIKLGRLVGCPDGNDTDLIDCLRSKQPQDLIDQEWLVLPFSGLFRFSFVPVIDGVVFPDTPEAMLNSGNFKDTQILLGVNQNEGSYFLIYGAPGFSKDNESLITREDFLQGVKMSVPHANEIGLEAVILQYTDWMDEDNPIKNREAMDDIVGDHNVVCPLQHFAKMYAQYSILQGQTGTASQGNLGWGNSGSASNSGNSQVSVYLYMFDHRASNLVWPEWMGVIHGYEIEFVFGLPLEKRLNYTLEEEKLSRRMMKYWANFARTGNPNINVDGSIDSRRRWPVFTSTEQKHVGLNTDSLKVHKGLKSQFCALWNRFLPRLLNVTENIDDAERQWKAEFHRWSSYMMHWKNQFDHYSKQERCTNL
The threshold is 70%. Values of remaining activity at 10 µM beneath it are tagged fulfilled; values meeting or exceeding it are tagged not fulfilled.

Some entries whose results are on file:
input_smiles=COc1ccc(C(/C=C/c2ccccc2)=N\Oc2ccc(C(C)=O)cc2)cc1 category="not fulfilled"
input_smiles=COc1ccc(C(=O)/C=C/c2ccc(ON=C(c3ccccc3)c3ccccc3)cc2)cc1 category="not fulfilled"

# ---- query molecule ----
Please determine if "O=C(/C=C/c1ccc(ON=C(c2ccccc2)c2ccccc2)cc1)c1ccc(F)cc1" is below 70% in terms of remaining activity at 10 µM.
not fulfilled
